Reported values of solubility for individual entries
- TEST NAME: Solubility in Dowanol PM (2-methoxy propanol)
- Type: physicochemical
- CONDITION SUMMARY: 20 °C, organic solvent or mixture, Dowanol PM (2-methoxy propanol); Table II; read-out: S1, solubility of IR Dye in Dowanol PM
Report only the number, with the unit mg/mL understood.

| MOLECULE | UNIT DESCRIPTOR | solubility |
| --- | --- | --- |
| CN1/C(=C/C=C2\CCCC(/C=C/C3=[N+](C)c4ccccc4C3(C)C)=C2Sc2nnnn2-c2ccccc2)C(C)(C)c2ccccc21 [compound 1] | mg/mL | 192 |

Read the next record carefully.
Note to self: solubility recorded for C=Cc1ccc(CSc2nnc(SC3=C(/C=C/C4=[N+](C)c5ccccc5C4(C)C)CCC/C3=C\C=C3\N(C)c4ccccc4C3(C)C)s2)cc1 [compound 2] was 128
